Test system: T47D ductal carcinoma line (PRLR+)
Test: In vitro cytotoxicity assay (CellTiter-Glo), T47D cells
Assay type: cell-based, human
Conditions: 5 days; corrected for payload equivalents; read-out: IC50 (cytotoxicity of T47D cells)
From the text: The present example provides cytotoxicity assays for conjugates provided herein. To evaluate the ability of anti-PRLR antibodies conjugated with 63, 60, 77, and 78 to kill a PRLR expressing cell line, an in vitro cytotoxicity assay using a T47D ductal carcinoma line (ATCC, #HTB-133), which was previously determined to express >27,000 copies of human PRLR at its cell surface, was utilized. […]
pIC50: −log10 of the molar value.
Reported pIC50 is given for each of the following molecules.
Metric: pIC50

Molecule	Metric	Reading
COc1cc2cc(c1Cl)N(C)C(=O)C[C@H](OC(=O)[C@H](C)N(C)C(=O)c1ccc(N)cc1F)[C@]1(C)O[C@H]1[C@H](C)[C@@H]1C[C@@](O)(NC(=O)O1)[C@H](OC)/C=C/C=C(\C)C2 [Compound 29]	pIC50	10.15
COc1cc2cc(c1Cl)N(C)C(=O)C[C@H](OC(=O)[C@H](C)N(C)C(=O)c1ccc(N)cc1)[C@]1(C)O[C@H]1[C@H](C)[C@@H]1C[C@@](O)(NC(=O)O1)[C@H](OC)/C=C/C=C(\C)C2 [Compound 27]	pIC50	10.00
COc1cc(C(=O)N(C)[C@@H](C)C(=O)O[C@H]2CC(=O)N(C)c3cc(cc(OC)c3Cl)C/C(C)=C/C=C/[C@@H](OC)[C@@]3(O)C[C@H](OC(=O)N3)[C@@H](C)[C@@H]3O[C@@]23C)ccc1N [Compound 49]	pIC50	10.52

Data origin: patent US12297207B2
